meta.source: paper PMC4086519

- Tested on: Trichophyton mentagrophytes
- testDescription: Broth microdilution MIC (CLSI M38-A2, modified)
- Format: cell-based
- measurementSetup: Tm2, clinical isolate; 35°C, 7 days
# note: boundary value 20 mg/L maps to N; MIC below it maps to Y

Ask: Does CCCCCCCCCCCCCCCCCCOC(=O)c1ccc(O)c(O)c1 [Protocatechuate octadecyl] have MIC strictly under 20 mg/L?
Result: N

Ask: Also, CCCCCCCOC(=O)c1ccc(O)c(O)c1 [Protocatechuate heptyl, protocatechuate heptyl] please.
Result: Y

Ask: Also, CCCCOC(=O)c1ccc(O)c(O)c1 [Protocatechuate butyl] please.
Result: Y

Ask: Also, CCCCCOC(=O)c1ccc(O)c(O)c1 [Protocatechuate pentyl, pentyl protocatechuate] please.
Result: Y

Ask: Also, CCCCCCCCCCCCCCOC(=O)c1ccc(O)c(O)c1 [Protocatechuate tetradecyl] please.
Result: N

Ask: Also, `O=C(O)c1ccc(O)c(O)c1` please.
Result: N

---

- Test system: Trichophyton rubrum
- testDescription: Broth microdilution MIC (CLSI M38-A2, modified)
- Type: cell-based
- measurementSetup: Tr2, T. rubrum clinical isolate; 35°C, 7 days
# note: boundary value 8 µg/mL maps to Criterion not met; MIC below it maps to Criterion met

Ask: Does CCCCCCCOC(=O)c1ccc(O)c(O)c1 [Protocatechuate heptyl, protocatechuate heptyl] have MIC strictly under 8 µg/mL?
Result: Criterion met

Ask: Also, CCCCCCCCCCCCOC(=O)c1ccc(O)c(O)c1 [Protocatechuate dodecyl] please.
Result: Criterion not met

Ask: Also, CCCCCCCCCCOC(=O)c1ccc(O)c(O)c1 [Protocatechuate decyl] please.
Result: Criterion met

Ask: Also, CCCOC(=O)c1ccc(O)c(O)c1 [Protocatechuate propyl] please.
Result: Criterion not met

---

- Tested on: Trichophyton mentagrophytes
- testDescription: Minimum fungicide concentration (MFC)
- Format: cell-based
- measurementSetup: Tm2, clinical isolate
measurementLabel: MFC (µg/mL)
Hi! Could you send only the number? It should be in µg/mL, unit omitted.

Ask: Which value of MFC has been reported for CCCCCCCCCOC(=O)c1ccc(O)c(O)c1 [Protocatechuate nonyl, nonyl protocatechuate] in the records?
Result: 3.9

Ask: Also, CCCCCCCCCCOC(=O)c1ccc(O)c(O)c1 [Protocatechuate decyl] please.
Result: 3.9

Ask: Also, CCCCCCOC(=O)c1ccc(O)c(O)c1 [Protocatechuate hexyl, hexyl protocatechuate] please.
Result: 3.9
